Cited source: patent US20240287154A1

biological target: human MC3R (Homo sapiens); test: Intracellular cAMP levels in live cells, MC3R agonist activity; settings: cAMP split-luciferase reporter cell line stably expressing human MC3R; direct agonist effect, measurement window 1
Sequence (P41968 whole entry): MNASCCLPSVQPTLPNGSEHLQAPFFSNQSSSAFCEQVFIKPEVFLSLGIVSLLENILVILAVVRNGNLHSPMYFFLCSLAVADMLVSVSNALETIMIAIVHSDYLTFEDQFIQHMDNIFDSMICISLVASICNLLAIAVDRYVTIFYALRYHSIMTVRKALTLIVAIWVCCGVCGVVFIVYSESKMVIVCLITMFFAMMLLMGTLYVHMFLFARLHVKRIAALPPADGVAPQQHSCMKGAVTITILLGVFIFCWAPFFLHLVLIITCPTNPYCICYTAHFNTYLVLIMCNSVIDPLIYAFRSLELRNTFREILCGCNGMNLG
Non-standard residues stand in square brackets, D forms with d. Residues, ends and D or L forms follow the SMILES beside them. Nle = CCCC[C@H](N)C(=O)O
Can you tell me pEC50 for the items I'm about to list?
Answers are plain numbers, as −log10 of the molar value.

# example entries with known answers
CCCC[C@H](NC(C)=O)C(=O)N[C@H](C)C(=O)N[C@@H](Cc1c[nH]cn1)C(=O)N[C@@H](Cc1ccccc1)C(=O)N[C@@H](CCCNC(=N)N)C(=O)N[C@H](Cc1c[nH]c2ccccc12)C(=O)N[C@@H](CC(=O)O)C(=O)N[C@H](CCCNC(=N)N)C(=O)N[C@@H](Cc1ccccc1)C(=O)NCC(=O)O [CTX-1146] (Ac-[Nle][dA]HFR[dW]D[dR]FG-OH)    6.77
CCCC[C@H](NC(=O)[C@@H](NC(=O)[C@@H](N)Cc1ccc(O)cc1)C(C)C)C(=O)N[C@H](C)C(=O)N[C@@H](Cc1c[nH]cn1)C(=O)N[C@@H](Cc1ccccc1)C(=O)N[C@@H](CCCNC(=N)N)C(=O)N[C@H](Cc1c[nH]c2ccccc12)C(=O)N[C@@H](CC(=O)O)C(=O)N[C@@H](CCCNC(=N)N)C(=O)N[C@@H](Cc1ccccc1)C(=O)NCC(N)=O [CTX-1118] (H-YV[Nle][dA]HFR[dW]DRFG-NH2)    8.92

We now examine a further molecule.
Input: Give its pEC50 value. Item: CCCC[C@H](NC(C)=O)C(=O)N[C@H](C)C(=O)N[C@@H](Cc1c[nH]cn1)C(=O)N[C@@H](Cc1ccccc1)C(=O)N[C@@H](CCCNC(=N)N)C(=O)N[C@H](Cc1c[nH]c2ccccc12)C(=O)N[C@@H](CC(=O)O)C(=O)N[C@@H](CCCNC(=N)N)C(=O)N[C@@H](Cc1ccccc1)C(=O)NCC(=O)O [CTX-1122] (Ac-[Nle][dA]HFR[dW]DRFG-OH)
Output: 8.92

* * *

Can you tell me MC3R selectivity (relative to MC4R) for the items I'm about to list?
target: human MC4R (Homo sapiens, UniProt P32245); experiment: Intracellular cAMP levels in live cells, MC3R selectivity relative to MC4R; type: cell-based; details: cAMP assays in human MC3R and human MC4R stable cell lines
Sequence (P32245 whole entry): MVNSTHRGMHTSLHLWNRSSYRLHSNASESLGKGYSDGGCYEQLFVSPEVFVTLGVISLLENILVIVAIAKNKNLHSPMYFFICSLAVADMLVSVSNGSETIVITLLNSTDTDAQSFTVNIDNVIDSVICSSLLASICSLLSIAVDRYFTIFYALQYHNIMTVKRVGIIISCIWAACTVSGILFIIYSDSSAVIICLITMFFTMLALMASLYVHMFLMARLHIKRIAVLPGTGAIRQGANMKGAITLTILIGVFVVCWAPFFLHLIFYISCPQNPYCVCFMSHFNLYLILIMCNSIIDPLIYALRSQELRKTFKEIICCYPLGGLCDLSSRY
Non-standard residues stand in square brackets, D forms with d. Residues, ends and D or L forms follow the SMILES beside them. Nle = CCCC[C@H](N)C(=O)O
Give bare numbers.

CCCC[C@H](NC(=O)CNC(=O)COCCOCCNC(=O)CNC(=O)CCc1ccc(I)cc1)C(=O)N[C@H](C)C(=O)N[C@@H](Cc1c[nH]cn1)C(=O)N[C@@H](Cc1ccccc1)C(=O)N[C@@H](CCCNC(=N)N)C(=O)N[C@H](Cc1c[nH]c2ccccc12)C(=O)N[C@@H](CC(=O)O)C(=O)N[C@@H](CCCNC(=N)N)C(=O)N[C@H](Cc1ccccc1)C(=O)NCC(=O)O [CTX-1154]    1070

Please report MC3R selectivity (relative to MC4R) for every entry that follows.
1. CCCC[C@H](NC(=O)[C@@H](NC(=O)[C@@H](N)Cc1ccc(O)cc1)C(C)C)C(=O)N[C@H](C)C(=O)N[C@@H](Cc1c[nH]cn1)C(=O)N[C@@H](Cc1ccccc1)C(=O)N[C@@H](CCCNC(=N)N)C(=O)N[C@H](Cc1c[nH]c2ccccc12)C(=O)N[C@@H](CC(=O)O)C(=O)N[C@@H](CCCNC(=N)N)C(=O)N[C@H](Cc1ccccc1)C(=O)NCC(=O)O [CTX-1127] (H-YV[Nle][dA]HFR[dW]DR[dF]G-OH)
2. CSCC[C@H](N)C(=O)NCC(=O)N[C@@H](Cc1c[nH]cn1)C(=O)N[C@@H](Cc1ccccc1)C(=O)N[C@@H](CCCNC(=N)N)C(=O)N[C@H](Cc1c[nH]c2ccccc12)C(=O)N[C@@H](CC(=O)O)C(=O)N[C@@H](CCCNC(=N)N)C(=O)N[C@@H](Cc1ccccc1)C(=O)NCC(=O)O [CTX-1547] (H-MGHFR[dW]DRFG-OH)

Output:
1: 95; 2: 54
